experiment: soluble on expression in E. coli; label from the status in PepcDB or PDB records
QUANTITY NAME: soluble on expression in E. coli

DWVIPPISSPENEKGPFPKNLVQIKSNKDKEGKVFYSITGQGADTPPVGVFIIERETGWLKVTEPLDRERIATYTLFSHAVSSNGNAVEDPMEILITVTDQNDNKPEFTQEVFKGSVMEGALPGTSVMEVTATDADDDVNTYNAAIAYTILSQDPELPDKNMFTINRNTGVISVVTTGLDRESFPTYTLVVQAADLQGEGLSTTATAVITVTD = soluble
TPMRSPIIWINGPFGVGKTHTAHTLHERLPGSFVFEPEEMGQALRKLTPGFSGDPQEHPMWIPLMLDALQYASREAAGPLIVPVSISDTARHRRLMSGLKDRGLSVHHFTLIAPLNVVLERLRRDGQPQVNVGTVEDRLNELRGEQFQTHIDTAGLGTQQVAEQIAAQVGLTLAPPPQGALHW = soluble
